test: AUC in BALB/c mouse at 400 mg/kg, po; type: ADME, organism-based; set-up: dose 400 mg/kg, route oral; details: plasma
property.label: AUC (µM·h)

CCOC(=O)c1cc(/C=C/c2ccnc3ccccc23)on1: 156
CCOC(=O)c1cc(COc2cc(C(F)(F)F)nc3c(C(F)(F)F)cccc23)on1: 2.2

----------
assay: Selectivity index, ratio of IC50 for Vero cells to IC50 for Mycobacterium tuberculosis H37Rv by Alamar blue susceptibility assay; type: toxicity, cell-based; settings: monkey, read-out: Ratio IC50
Item-by-item account of selectivity ratio
property.label: selectivity ratio

CCOC(=O)c1cc(C(=O)Nc2cc(C(F)(F)F)nc3c(C(F)(F)F)cccc23)on1: > 4.3
CCOC(=O)c1cc(/C=C\c2ccnc3ccccc23)on1: > 213
CCOC(=O)c1cc(-c2cc(C(F)(F)F)nc3c(C(F)(F)F)cccc23)on1: > 7.8
CCOC(=O)c1cc(/C=C/c2ccc3ncccc3c2)on1: > 142
CO[C@H]1/C=C/O[C@@]2(C)Oc3c(C)c(O)c4c(O)c(c(/C=N/N5CCN(C)CC5)c(O)c4c3C2=O)NC(=O)/C(C)=C\C=C\[C@H](C)[C@H](O)[C@@H](C)[C@@H](O)[C@@H](C)[C@H](OC(C)=O)[C@@H]1C: 1220
CCOC(=O)c1cc(/C=C\c2ccnc3ccc(OC)cc23)on1: > 80
OC(c1cc(C(F)(F)F)nc2c(C(F)(F)F)cccc12)C1CCCCN1 (configuration not stated): 0.9
CCOC(=O)c1cc(/C=C/c2ccnc3ccccc23)on1: > 640
CCOC(=O)c1cc(C(C)Oc2cc(C(F)(F)F)nc3c(C(F)(F)F)cccc23)on1 (configuration not stated): > 30.5
CCOC(=O)c1cc(COc2cc(C(F)(F)F)nc3c(C(F)(F)F)cccc23)on1: > 144
CCOC(=O)c1cc(/C=C/c2ccnc3ccc(OC)cc23)on1: > 320
CCOC(=O)c1cc(/C=C/c2cc(C(F)(F)F)nc3c(C(F)(F)F)cccc23)on1: > 47.5
CCOC(=O)c1cc(CCc2cc(C(F)(F)F)nc3c(C(F)(F)F)cccc23)on1: > 22.5
CCCCC(Oc1cc(C(F)(F)F)nc2c(C(F)(F)F)cccc12)c1cc(C(=O)OCC)no1 (configuration not stated): 0.3
CCOC(=O)c1cc(C(C)(C)Oc2cc(C(F)(F)F)nc3c(C(F)(F)F)cccc23)on1: 0.6
CCOC(=O)c1cc(CCc2ccnc3ccccc23)on1: > 47.5
CCOC(=O)c1cc(/C=C\c2ccc3ncccc3c2)on1: > 98.4

----------
system: Mycobacterium tuberculosis; test: Antitubercular activity against Mycobacterium tuberculosis H37Rv at pH 6.8 by Alamar blue susceptibility assay; format: functional
property.label: MIC (µM)

CCOC(=O)c1cc(C(C)(C)Oc2cc(C(F)(F)F)nc3c(C(F)(F)F)cccc23)on1: 6.8
CCOC(=O)c1cc(CCc2cc(C(F)(F)F)nc3c(C(F)(F)F)cccc23)on1: 5.7
CCOC(=O)c1cc(-c2cc(C(F)(F)F)nc3c(C(F)(F)F)cccc23)on1: 16.5
CCOC(=O)c1cc(C(C)Oc2cc(C(F)(F)F)nc3c(C(F)(F)F)cccc23)on1 (stereo not drawn): 4.2
CCOC(=O)c1cc(/C=C\c2ccnc3ccccc23)on1: 0.6
CCOC(=O)c1cc(/C=C\c2ccc3ncccc3c2)on1: 1.3
CCOC(=O)c1cc(C(=O)Nc2cc(C(F)(F)F)nc3c(C(F)(F)F)cccc23)on1: 29.5
OC(c1cc(C(F)(F)F)nc2c(C(F)(F)F)cccc12)C1CCCCN1 (stereo not drawn): 13
CCOC(=O)c1cc(/C=C/c2ccnc3ccccc23)on1: 0.2
CCOC(=O)c1cc(/C=C/c2ccnc3ccc(OC)cc23)on1: 0.4
CCOC(=O)c1cc(/C=C/c2ccc3ncccc3c2)on1: 0.9
CCOC(=O)c1cc(COc2cc(C(F)(F)F)nc3c(C(F)(F)F)cccc23)on1: 0.9
CCOC(=O)c1cc(/C=C/c2cc(C(F)(F)F)nc3c(C(F)(F)F)cccc23)on1: 2.7
CCOC(=O)c1cc(/C=C\c2ccnc3ccc(OC)cc23)on1: 1.6
CCOC(=O)c1cc(CCc2ccnc3ccccc23)on1: 2.7
CO[C@H]1/C=C/O[C@@]2(C)Oc3c(C)c(O)c4c(O)c(c(/C=N/N5CCN(C)CC5)c(O)c4c3C2=O)NC(=O)/C(C)=C\C=C\[C@H](C)[C@H](O)[C@@H](C)[C@@H](O)[C@@H](C)[C@H](OC(C)=O)[C@@H]1C: 0.1
CCCCC(Oc1cc(C(F)(F)F)nc2c(C(F)(F)F)cccc12)c1cc(C(=O)OCC)no1 (stereo not drawn): 116

----------
test: Half life in BALB/c mouse at 400 mg/kg, po; format: ADME, organism-based; design: dose 400 mg/kg, route oral; conditions: in vivo
property.label: half-life (h)

CCOC(=O)c1cc(COc2cc(C(F)(F)F)nc3c(C(F)(F)F)cccc23)on1: 1.6
CCOC(=O)c1cc(/C=C/c2ccnc3ccccc23)on1: 1.9

----------
Item-by-item account of selectivity ratio
assay: Selectivity index, ratio of IC50 for Vero cells to IC50 for Mycobacterium tuberculosis H37Rv by low oxygen recovery assay; format: toxicity, cell-based; details: monkey, read-out: Ratio IC50
property.label: selectivity ratio

CCOC(=O)c1cc(/C=C/c2cc(C(F)(F)F)nc3c(C(F)(F)F)cccc23)on1: > 3.3
CCOC(=O)c1cc(CCc2cc(C(F)(F)F)nc3c(C(F)(F)F)cccc23)on1: > 10.2
CCOC(=O)c1cc(/C=C/c2ccnc3ccccc23)on1: > 49.2
CCOC(=O)c1cc(/C=C\c2ccnc3ccccc23)on1: > 42.7
CCOC(=O)c1cc(C(C)Oc2cc(C(F)(F)F)nc3c(C(F)(F)F)cccc23)on1 (stereo unspecified): > 6.2
CCOC(=O)c1cc(/C=C\c2ccc3ncccc3c2)on1: > 10.3
CCOC(=O)c1cc(/C=C/c2ccc3ncccc3c2)on1: > 13.8
CCOC(=O)c1cc(CCc2ccnc3ccccc23)on1: > 5.7
CCOC(=O)c1cc(-c2cc(C(F)(F)F)nc3c(C(F)(F)F)cccc23)on1: > 2.7
CO[C@H]1/C=C/O[C@@]2(C)Oc3c(C)c(O)c4c(O)c(c(/C=N/N5CCN(C)CC5)c(O)c4c3C2=O)NC(=O)/C(C)=C\C=C\[C@H](C)[C@H](O)[C@@H](C)[C@@H](O)[C@@H](C)[C@H](OC(C)=O)[C@@H]1C: 61
CCCCC(Oc1cc(C(F)(F)F)nc2c(C(F)(F)F)cccc12)c1cc(C(=O)OCC)no1 (stereo unspecified): 3.6
CCOC(=O)c1cc(/C=C/c2ccnc3ccc(OC)cc23)on1: > 116
CCOC(=O)c1cc(C(C)(C)Oc2cc(C(F)(F)F)nc3c(C(F)(F)F)cccc23)on1: 1
CCOC(=O)c1cc(/C=C\c2ccnc3ccc(OC)cc23)on1: > 64
CCOC(=O)c1cc(COc2cc(C(F)(F)F)nc3c(C(F)(F)F)cccc23)on1: > 10.5
OC(c1cc(C(F)(F)F)nc2c(C(F)(F)F)cccc12)C1CCCCN1 (stereo unspecified): 1.6
